Test Description: Biodegradability (general properties table)
Outcome Measure: BIO = biodegradability

ClCCl : −
CO[C@H]1CO[C@H]2[C@@H]1OC[C@H]2OC [Composition 5, dimethyl isosorbide] : +
C=C(C)[C@H]1CC=C(C)CC1 : +
ClC=C(Cl)Cl : −

* * *

Test Description: Volatility / aptitude for drying
Type: physicochemical
Design: key: 0 = low; + = moderate; ++ = high
Outcome Measure: VOL = volatility/aptitude for drying

ClC=C(Cl)Cl [Composition 1, trichloroethylene] : ++
CCOC(=O)C(C)O (centres unmarked) [Composition 4, ethyl lactate] : +
ClCCl [Composition 2, dichloromethane] : ++
C=C(C)[C@H]1CC=C(C)CC1 [Composition 3, dipentene] : ++

Switching to the query record.
Specify VOL = volatility/aptitude for drying for CO[C@H]1CO[C@H]2[C@@H]1OC[C@H]2OC [Composition 5, dimethyl isosorbide] and stop.
0
